Test system: peptide-specific IgG in sera of cancer patients and healthy donors
Experiment Notes: Measurement of anti-peptide IgG in plasma by LUMINEX multiplexed flow cytometric assay
Format: binding, human
Cond: serum of Uterine cervical Ca. patient #33, 1:100 dilution
Experimental: The levels of anti-peptide immunoglobulin G (IgG) were measured by the LUMINEX™ system (multiplexed flow cytometric assay) as previously reported (Komatsu N, Shichijo S, Nakagawa M, Itoh K. New multiplexed flow cytometric assay to measure anti-peptide antibody: a novel tool for monitoring immune responses to peptides used for immunization. Scand J Clin Lab Invest 2004; 64:1-11). […] Fifty μl of sample was detected using the LUMINEX™ system (multiplexed flow cytometric assay). […]
Value Kind: Fluorescence intesity
Please state the value as a number alone, without comment.

Example cases with answers are listed next.
KFMFDLFQQF (SCCA 10-19 peptide) [SCCA-derived peptide, position 10-19] = 92
EFHCNHPFL (SCCA 362-370 peptide) [SCCA-derived peptide, position 362-370] = 93
AYELKIANKL (SCCA 98-107 peptide) [SCCA-derived peptide, position 98-107] = 191
EYLDAIKKF (SCCA 118-126 peptide) [SCCA-derived peptide, position 118-126] = 114
LFGEKTYLFL (SCCA 107-116 peptide) [SCCA-derived peptide, position 107-116] = 170

[ask] Quick one: Fluorescence intesity for RFKVEESYDL (SCCA 286-295 peptide) [SCCA-derived peptide, position 286-295] ?
[reply] 118

[ask] Quick one: Fluorescence intesity for QFQKLLTEF (SCCA 84-92 peptide) [SCCA-derived peptide, position 84-92] ?
[reply] 141

====

Tested on: peptide-specific IgG in sera of cancer patients and healthy donors
Experiment Notes: Measurement of anti-peptide IgG in plasma by LUMINEX multiplexed flow cytometric assay
Format: binding, human
Cond: serum of Healthy Donor #1, 1:100 dilution
Value Kind: Fluorescence intesity
Please state the value as a number alone, without comment.

Example cases with answers are listed next.
RFKVEESYDL (SCCA 286-295 peptide) [SCCA-derived peptide, position 286-295] = 21
KFMFDLFQQF (SCCA 10-19 peptide) [SCCA-derived peptide, position 10-19] = 0
QFQKLLTEF (SCCA 84-92 peptide) [SCCA-derived peptide, position 84-92] = 0
EFHCNHPFL (SCCA 362-370 peptide) [SCCA-derived peptide, position 362-370] = 0
EYLDAIKKF (SCCA 118-126 peptide) [SCCA-derived peptide, position 118-126] = 0

[ask] Quick one: Fluorescence intesity for AYELKIANKL (SCCA 98-107 peptide) [SCCA-derived peptide, position 98-107] ?
[reply] 0

[ask] Quick one: Fluorescence intesity for LFGEKTYLFL (SCCA 107-116 peptide) [SCCA-derived peptide, position 107-116] ?
[reply] 53

====

Listed here are sequences together with their documented Total: healthy donors with significant peptide-reactive IgG / donors tested.
System: peptide-specific IgG in sera of cancer patients and healthy donors
Experiment Notes: Measurement of anti-peptide IgG in plasma by LUMINEX multiplexed flow cytometric assay
Type: binding, human
Cond: 10 healthy donors; significant when fluorescence intensity exceeded 100 at 1/100 dilution

EYLDAIKKF (SCCA 118-126 peptide) [SCCA-derived peptide, position 118-126] = 2/10
RFKVEESYDL (SCCA 286-295 peptide) [SCCA-derived peptide, position 286-295] = 4/10
EFHCNHPFL (SCCA 362-370 peptide) [SCCA-derived peptide, position 362-370] = 1/10

[ask] Quick one: Total: healthy donors with significant peptide-reactive IgG / donors tested for KFMFDLFQQF (SCCA 10-19 peptide) [SCCA-derived peptide, position 10-19] ?
[reply] 1/10

[ask] Quick one: Total: healthy donors with significant peptide-reactive IgG / donors tested for AYELKIANKL (SCCA 98-107 peptide) [SCCA-derived peptide, position 98-107] ?
[reply] 1/10

[ask] Quick one: Total: healthy donors with significant peptide-reactive IgG / donors tested for QFQKLLTEF (SCCA 84-92 peptide) [SCCA-derived peptide, position 84-92] ?
[reply] 1/10

[ask] Quick one: Total: healthy donors with significant peptide-reactive IgG / donors tested for LFGEKTYLFL (SCCA 107-116 peptide) [SCCA-derived peptide, position 107-116] ?
[reply] 5/10

====

Listed here are sequences together with their documented Fluorescence intesity.
Tested on: peptide-specific IgG in sera of cancer patients and healthy donors
Experiment Notes: Measurement of anti-peptide IgG in plasma by LUMINEX multiplexed flow cytometric assay
Type: binding, human
Cond: serum of Gastric Ca. patient #60, 1:100 dilution

Example cases with answers are listed next.
EYLDAIKKF (SCCA 118-126 peptide) [SCCA-derived peptide, position 118-126] = 0
AYELKIANKL (SCCA 98-107 peptide) [SCCA-derived peptide, position 98-107] = 1
RFKVEESYDL (SCCA 286-295 peptide) [SCCA-derived peptide, position 286-295] = 79

[ask] Quick one: Fluorescence intesity for QFQKLLTEF (SCCA 84-92 peptide) [SCCA-derived peptide, position 84-92] ?
[reply] 0

[ask] Quick one: Fluorescence intesity for EFHCNHPFL (SCCA 362-370 peptide) [SCCA-derived peptide, position 362-370] ?
[reply] 0

[ask] Quick one: Fluorescence intesity for LFGEKTYLFL (SCCA 107-116 peptide) [SCCA-derived peptide, position 107-116] ?
[reply] 24

[ask] Quick one: Fluorescence intesity for KFMFDLFQQF (SCCA 10-19 peptide) [SCCA-derived peptide, position 10-19] ?
[reply] 4

====

Test system: peptide-specific IgG in sera of cancer patients and healthy donors
Experiment Notes: Measurement of anti-peptide IgG in plasma by LUMINEX multiplexed flow cytometric assay
Type: binding, human
Cond: serum of Healthy Donor #5, 1:100 dilution
Procedure: The levels of anti-peptide immunoglobulin G (IgG) were measured by the LUMINEX™ system (multiplexed flow cytometric assay) as previously reported (Komatsu N, Shichijo S, Nakagawa M, Itoh K. New multiplexed flow cytometric assay to measure anti-peptide antibody: a novel tool for monitoring immune responses to peptides used for immunization. Scand J Clin Lab Invest 2004; 64:1-11). […] Fifty μl of sample was detected using the LUMINEX™ system (multiplexed flow cytometric assay). […]
Value Kind: Fluorescence intesity
Please state the value as a number alone, without comment.

Example cases with answers are listed next.
EYLDAIKKF (SCCA 118-126 peptide) [SCCA-derived peptide, position 118-126] = 0
LFGEKTYLFL (SCCA 107-116 peptide) [SCCA-derived peptide, position 107-116] = 331

[ask] Quick one: Fluorescence intesity for RFKVEESYDL (SCCA 286-295 peptide) [SCCA-derived peptide, position 286-295] ?
[reply] 239

====

System: peptide-specific IgG in sera of cancer patients and healthy donors
Experiment Notes: Measurement of anti-peptide IgG in plasma by LUMINEX multiplexed flow cytometric assay
Assay type: binding, human
Cond: serum of Uterine cervical Ca. patient #23, 1:100 dilution
Listed here are sequences together with their documented Fluorescence intesity.
Please state the value as a number alone, without comment.

KFMFDLFQQF (SCCA 10-19 peptide) [SCCA-derived peptide, position 10-19] = 78
QFQKLLTEF (SCCA 84-92 peptide) [SCCA-derived peptide, position 84-92] = 57
EFHCNHPFL (SCCA 362-370 peptide) [SCCA-derived peptide, position 362-370] = 56

Turning now to a further record.
[ask] Quick one: Fluorescence intesity for EYLDAIKKF (SCCA 118-126 peptide) [SCCA-derived peptide, position 118-126] ?
[reply] 44

====

Test system: peptide-specific IgG in sera of cancer patients and healthy donors
Experiment Notes: Measurement of anti-peptide IgG in plasma by LUMINEX multiplexed flow cytometric assay
Format: binding, human
Cond: 71 cancer patients; significant when fluorescence intensity exceeded 100 at 1/100 dilution
Listed here are sequences together with their documented Total: cancer patients with significant peptide-reactive IgG / patients tested.

QFQKLLTEF (SCCA 84-92 peptide) [SCCA-derived peptide, position 84-92] = 14/71
KFMFDLFQQF (SCCA 10-19 peptide) [SCCA-derived peptide, position 10-19] = 12/71
LFGEKTYLFL (SCCA 107-116 peptide) [SCCA-derived peptide, position 107-116] = 27/71

Turning now to a further record.
[ask] Quick one: Total: cancer patients with significant peptide-reactive IgG / patients tested for RFKVEESYDL (SCCA 286-295 peptide) [SCCA-derived peptide, position 286-295] ?
[reply] 19/71

====

Tested on: peptide-specific IgG in sera of cancer patients and healthy donors
Experiment Notes: Measurement of anti-peptide IgG in plasma by LUMINEX multiplexed flow cytometric assay
Type: binding, human
Cond: serum of Uterine cervical Ca. patient #22, 1:100 dilution
# if measured Fluorescence intesity < 20: condition met  # else: condition not met

Answered cases to consult:
AYELKIANKL (SCCA 98-107 peptide) [SCCA-derived peptide, position 98-107] = condition not met
RFKVEESYDL (SCCA 286-295 peptide) [SCCA-derived peptide, position 286-295] = condition not met
LFGEKTYLFL (SCCA 107-116 peptide) [SCCA-derived peptide, position 107-116] = condition met
KFMFDLFQQF (SCCA 10-19 peptide) [SCCA-derived peptide, position 10-19] = condition met

# input for lookup
[ask] Identify whether the sequence EFHCNHPFL (SCCA 362-370 peptide) [SCCA-derived peptide, position 362-370] records Fluorescence intesity below 20.
[reply] condition not met

Hey, just so you know, these numbers are from patent US8030443B2.
